Reference for the values: patent US20120065365A1

Format: physicochemical
Settings: ^177Lu-B (44-53 mCi) formulated with 5 mg stabilizing compound, 6 h
Where a name gives a salt, the structure may show the parent alone.
RECORDED METRIC: (% RCP) 6-h

Data request: What (% RCP) 6-h value was documented for this compound, CCOC(=O)[C@@H](N)CS [L-cysteine ethyl ester hydrochloride] ?
Data returned: 94.7%

Data request: What (% RCP) 6-h value was documented for this compound, "C[Se]CC[C@H](N)C(=O)O" ?
Data returned: 94.4%

Data request: What (% RCP) 6-h value was documented for this compound, "N.S=C(S)N1CCCC1" ?
Data returned: 94.7%

Now, please, on to the next compound.
Data request: What (% RCP) 6-h value was documented for this compound, N[C@@H](CS)C(=O)O [L-cysteine, L-cysteine hydrochloride monohydrate] ?
Data returned: 87.3%
